Source listed as patent US20180282402A1.

Can you tell me Kd for the items I'm about to list?
Target: T1, Human HARS (human, UniProt P12081 1-509, limits assumed)
T1 construct: also called human HRS; human histidyl-tRNA synthetase
T1 sequence: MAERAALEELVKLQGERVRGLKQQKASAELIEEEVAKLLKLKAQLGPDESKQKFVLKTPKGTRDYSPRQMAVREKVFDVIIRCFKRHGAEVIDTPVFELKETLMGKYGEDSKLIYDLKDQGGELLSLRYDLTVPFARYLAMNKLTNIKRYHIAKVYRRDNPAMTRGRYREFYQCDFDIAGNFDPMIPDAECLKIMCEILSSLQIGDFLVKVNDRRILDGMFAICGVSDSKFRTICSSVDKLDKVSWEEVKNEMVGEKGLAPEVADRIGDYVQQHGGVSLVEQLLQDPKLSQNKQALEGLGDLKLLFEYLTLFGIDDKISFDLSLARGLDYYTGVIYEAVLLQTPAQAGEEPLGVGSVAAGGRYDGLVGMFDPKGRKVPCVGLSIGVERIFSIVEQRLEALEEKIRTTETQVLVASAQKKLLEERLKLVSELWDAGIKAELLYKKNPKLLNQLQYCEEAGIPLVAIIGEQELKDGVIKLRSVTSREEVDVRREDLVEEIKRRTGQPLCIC
Experiment: SPR (ProteOn); HRS protein immobilized, antibody as analyte
Numbers only, in nM.

Binder	Unit Annotation	Experimental Result
AB13-147 (antibody, V domains shown, Human; IgG1m(zf) kappa) VH: QVQLVESGGGLVKPGGSLRLSCAASGFTFSDYYMSWIRQAPGKGLEWVSYISDSSRYTKYTDSVRGRFTISRDNAKNSLYLQMNSLRAEDTAVYYCARYLYQVIAIAKSWGQGTLVTVSS VL: DIQMTQSPSSVSASVGDRVTITCRASQGISSWLAWFQQKPGKAPKLLIFVASNLESGVPSRFSGSGSGTDFTLTISSLQPEDFATYYCQQANSFPYTFGQGTKLEIK	nM	0.024
AB04-168 (antibody, IgG4, V domains shown, Human; IgG4-2 kappa) VH: QVQLVESGGGLVKPGGSLRLSCAASGFTFSDYYMTWIRQAPGKGLEWVSYISGSFRYTNYADKVKGRFTISRDNAKNSLYLQMNSLRDEDTAVYFCARYVYQVVAIGDLWGQGTLVTVSS VL: DIQMTQSPSSVSASVGDRVTITCRASQGISSWLAWYQQKPGRAPKLLIFAASSLQSGVPSRFSGSGSGTHFTLTISSLQPEDFATYYCQQAESFPYTFGQGTKLEIK	nM	0.015
AB04-365 (antibody, V domains shown, Human; IgG1m(zf) kappa) VH: QVQLVESGGGLVKPGGSLRLSCAASGFTFSDYYMTWIRQAPGKGLEWVSYISGSFAYTNYADSVKGRFTISRDNAKNSLYLQMNSLRDEDTAVYFCARYVYQVVAIGDYWGQGTLVTVSS VL: DIQMTQSPSSVSASVGDRVTITCRASQGISSWLAWYQQKPGRAPKLLIFAASSLQSGVPSRFSGSGSGTHFTLTISSLQPEDFATYYCQQAKSFPYTFGQGTKLEIK	nM	0.185
KL31-313 (antibody, IgG2a, V domains shown, Mouse; IgG2a kappa) VH: QVQLQQSGAELVRPGSSVRMSCKAVGYTFTDYCIGWIKQRPGHGLEWIGDICPGDAYTNDNEKFKDKATLTADTSSTTAYMQLSSLTSEDSAIYYCARGEEQVGLRNAMDYWGQGTSVTVSS VL: DIVLTQSPASLAVSLGQRATISCQSQSVSTSTYNYMHWYQQKPGQPPKLLIKYASNLESGVPARFSGSGSGTDFTLNIHPVEEEDTATYYCQHSWEIPWTFGGGTKLEIK	nM	277
KL31-240 (antibody, IgG4, V domains shown, Humanized; IgG4 kappa) VH: QVQLVQSGAEVKKPGASVKVSCKASGYTFTDYCIGWIRQAPGQGLEWMGDICPGDTYTNDNEKFKDRATMTADTSTSTAYMELSSLRSEDTAVYYCARGEEQLGLRNAMDYWGQGTLVTVSS VL: EIVLTQSPATLSLSPGERATLSCQSQSVSTSTYNYMHWYQQKPGQAPRLLIKYASNLESGIPDRFSGSGSGTDFTLTISRLEPEDFATYYCGHSYEIPWTFGGGTKVEIK	nM	0.104

Consider the additional binder presented here.
The value of Kd measured for the binder KL31-532 (antibody, V domains shown, Humanized; IgG1m(zf) kappa) VH: QVQLVQSGAEVKKPGASVKVSCKASGYTFTDYCIGWIRQAPGQGLEWMGDICPGDTYTNDNEKFKDRATMTADTSTSTAYMELSSLRSEDTAVYYCARGEEQLGLRNAMDYWGQGTLVTVSS VL: DIVMTQSPDSLAVSLGERATINCQSQSVSTSTYNYMHWYQQKPGQPPKLLIKYASNLESGVPDRFSGSGSGTDFTLTISSLQAEDVATYYCGHSYEIPWTFGGGTKVEIK turned out to be 0.064
